- Tested on: CP203
- Measurement protocol: qHTS profiling for inhibitors of Plasmodium falciparum proliferation (AID 504749); also: nearly all actives have a fitted effect of over 60% in size
- Condition info: P. falciparum in erythrocytes, SYBR Green DNA, 72 h; series mostly up to 28.7 µM
Results filed as inconclusive are left out. The source made the active and inactive calls. Calls follow the shape of the dose curve; as a rule, active = well fitted inhibition curve with a large enough effect; inconclusive = small, poorly fitted or top-dose-only effect; inactive = flat fitted curve, though single readings scatter.
Tick one outcome: YES (active), NO (inactive)

[
  {
    "Compound": "COc1ccc2cc3[n+](cc2c1OC)CCc1cc2c(cc1-3)OCO2",
    "Class assignment": "YES"
  },
  {
    "Compound": "Cn1nnc2c(C(N)=O)ncn2c1=O",
    "Class assignment": "NO"
  },
  {
    "Compound": "CNS(=O)(=O)Cc1ccc2[nH]cc(CCN(C)C)c2c1",
    "Class assignment": "NO"
  },
  {
    "Compound": "COc1ccc(C(=O)CC(=O)c2ccc(C(C)(C)C)cc2)cc1",
    "Class assignment": "NO"
  }
]

Problem: // outcome(item) with item = `CN1CCN(c2c(F)cc3c(=O)c(C(=O)O)cn(CCF)c3c2F)CC1`
Solution: NO

Problem: What outcome does the record of this test show for `C[C@]12C=CC(=O)C=C1CC[C@@H]1[C@@H]2C(=O)C[C@@]2(C)[C@H]1CC[C@]2(O)C(=O)CO` ?
Solution: NO

Problem: Which result was noted for this compound in the test: `N[C@@H](C(=O)N[C@@H]1C(=O)N2C(C(=O)O)=C(Cl)CS[C@H]12)c1ccccc1`
Solution: NO

Problem: Recorded test call requested for `O=P(O)(O)C(O)(Cc1cccnc1)P(=O)(O)O`
Solution: NO

Problem: Per the records of this test, what outcome belongs to `Cc1noc(NS(=O)(=O)c2ccc(N)cc2)c1C` ?
Solution: NO

Problem: Outcome? `CCOC(=O)[C@H](CCc1ccccc1)N[C@H]1CS[C@H](c2cccs2)CN(CC(=O)O)C1=O`
Solution: NO

Problem: Assay outcome for `CNNCc1ccc(C(=O)NC(C)C)cc1` : what was it?
Solution: NO

Problem: Could you check what this test reported for CC(C)NCC(O)c1ccc(NS(C)(=O)=O)cc1 (stereo unspecified) ?
Solution: NO

Problem: Dear all, I need the recorded test outcome for `COc1cc(NCc2ccc3nc(N)nc(N)c3c2C)cc(OC)c1OC` , thank you.
Solution: YES

Problem: Fill in: this test's call for `CCOC(=O)c1ccc(OC(=O)CCCCCN=C(N)N)cc1` is ___
Solution: NO

Problem: Lab log entry: `Cc1ccnc2c1NC(=O)c1cccnc1N2C1CC1` — outcome as called in the assay?
Solution: NO

Problem: Please share the test call associated with CC(N)C12CC3CC(CC(C3)C1)C2 (stereo unspecified) .
Solution: YES

Problem: Just curious, what result did `Cc1cccc(Nc2ccncc2S(=O)(=O)NC(=O)NC(C)C)c1` get here?
Solution: NO

Problem: Fill in: this test's call for `COc1nc(N)nc2c1ncn2[C@@H]1O[C@H](CO)[C@@H](O)[C@@H]1O` is ___
Solution: NO

Problem: State the result this test recorded for `O=S(=O)(O)CCS` .
Solution: NO

Problem: Field: outcome | Entry: CN(CCOc1ccc(CC2SC(=O)NC2=O)cc1)c1ccccn1 (stereo unspecified)
Solution: NO

Problem: Which outcome did this test record for the compound CNC1CCCN(c2c(F)cc3c(=O)c(C(=O)O)cn(C4CC4)c3c2OC)C1 (stereo unspecified) ?
Solution: NO

Problem: Call for entry `CC[C@H](C)C(=O)O[C@H]1C[C@@H](C)C=C2C=C[C@H](C)[C@H](CC[C@@H]3C[C@@H](O)CC(=O)O3)[C@H]21` :
Solution: NO

Problem: What was the test verdict on `CN(Cc1cc(Br)cc(Br)c1N)C1CCCCC1` ?
Solution: NO

Problem: # fetch the recorded call for `COC(=O)Nc1nc2ccc(Sc3ccccc3)cc2[nH]1` here
Solution: NO

Problem: Called result for `CC(C)Cn1cnc2c(N)nc3ccccc3c21`
Solution: NO

Problem: Please state the recorded outcome for this compound: `S=P(N1CC1)(N1CC1)N1CC1`
Solution: NO
